- studySystem: T1, PlzA WT (Borrelia burgdorferi B31, UniProt O51675 1-261)
- T1 sequence: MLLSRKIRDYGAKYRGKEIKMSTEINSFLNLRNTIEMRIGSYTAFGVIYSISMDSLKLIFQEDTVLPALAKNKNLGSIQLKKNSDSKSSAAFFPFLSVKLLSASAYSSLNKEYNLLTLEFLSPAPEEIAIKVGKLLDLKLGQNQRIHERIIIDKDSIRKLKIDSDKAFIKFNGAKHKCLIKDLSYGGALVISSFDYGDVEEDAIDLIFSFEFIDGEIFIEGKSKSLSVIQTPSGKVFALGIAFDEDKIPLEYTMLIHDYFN
- protocolNotes: EMSA
measure: pKd
One number for each entry, as −log10 of the molar value.

Tell me its pKd given glpFKD(-7/+35) (dsDNA) DNA 1: ATTAAATATAATTTTAATAAGGCTTTTATTAGAAAAATTAAT DNA 2: ATTAATTTTTCTAATAAAAGCCTTATTAAAATTATATTTAAT as the entry.
5.88
